- SUBJECT_OF_TEST: Tubulin (Homo sapiens) (UniProt P68371+Q9H4B7+P0DPH7+P68366+Q13509+Q71U36+P04350+Q3ZCM7+P07437+P68363+Q9BQE3+Q6PEY2+Q13885+Q9BVA1+Q9BUF5)
- EXPERIMENTAL_DETAILS: Binding affinity to microtubule polymerization (unknown origin) assessed as formation of microtubule at 27.5 uM measured for 2 hrs by plate reader method
- Assay type: protein-complex assay
Activity calls are given as the source filed them. The rule behind the calls is not given here.

[
  {
    "COMPOUND": "CN1CCN(C(=O)OC2=C(c3cccc4ncccc34)Oc3cc4ccccc4cc3-n3cccc32)CC1",
    "Activity": "Active"
  },
  {
    "COMPOUND": "CCN(CC)CCCC(C)NC(=O)OC1=C(c2cccc3ncccc23)Oc2cc3ccccc3cc2-n2cccc21 (racemic)",
    "Activity": "Active"
  },
  {
    "COMPOUND": "O=C(OC1=C(c2cccc3ncccc23)Oc2cc3ccccc3cc2-n2cccc21)C1CCNCC1",
    "Activity": "Active"
  },
  {
    "COMPOUND": "COc1cc([C@@H]2c3cc4c(cc3[C@H](O)[C@H]3COC(=O)[C@H]23)OCO4)cc(OC)c1OC",
    "Activity": "Active"
  }
]
